// IC50 lookup, one value per entry
# TESTED_SYSTEM: CYP2D6 (Homo sapiens, UniProt P10635)
# EXPERIMENT_SUMMARY: Cytochrome P450 inhibition, Method B6
# EXPERIMENTAL_SETUP: read-out: IC50 CYP 2D6; Table 4b; dextromethorphan used as substrate
Dear colleague, please return just the value in µM, with no unit written.

Some solved entries appear below for comparison.
COMPOUND | IC50 / µM
CC(C)[C@@H]1NCCOc2ccccc2CC[C@@H](C)NC(=O)[C@@H](Cc2ccc3ccccc3n2)NC(=O)[C@H](C(C)O)N(C)C1=O (stereo partly drawn) | 14.7
CC(C)[C@@H]1NCCOc2ccccc2/C=C/CNC(=O)[C@@H](Cc2cccc(Cl)c2)NC(=O)[C@H](C(C)O)N(C)C1=O (stereo partly drawn) | 5.2
CC(C)[C@@H]1NCCOc2ccc(F)cc2CC[C@@H](C)NC(=O)[C@@H](Cc2c[nH]c3ccccc23)NC(=O)[C@H](C(C)O)N(C)C1=O (stereo partly drawn) | 9.1
CC(C)[C@@H]1NCCOc2ccccc2/C=C/CNC(=O)[C@@H](Cc2cccc(O)c2)NC(=O)[C@H](C(C)O)N(C)C1=O (stereo partly drawn) | 7.9

Let us examine a further case.
Exercise: # query: IC50 of entry COc1ccccc1C[C@H]1NC(=O)[C@H](C(C)O)N(C)C(=O)[C@H](C(C)C)NCCOc2ccccc2CC[C@@H](C)NC1=O (stereo partly drawn)
Key: 14.5

* * *

# TESTED_SYSTEM: CYP2D6 (Homo sapiens)
# EXPERIMENT_SUMMARY: biochemical
MEASURED_QUANTITY: IC50 (µM)
Dear colleague, please return just the value in µM, with no unit written.

Exercise: # query: IC50 of entry CC(C)[C@@H]1NCCOc2ccccc2C2CCC(C2)NC(=O)[C@@H](Cc2ccc(F)cc2)NC(=O)[C@H](C(C)O)N(C)C1=O (stereo partly shown)
Key: 8

Exercise: # query: IC50 of entry CCC(C)[C@@H]1NCCOc2ccccc2C[C@H](O)CNC(=O)[C@@H](Cc2ccccc2)NC(=O)[C@H](C(C)O)N(C)C1=O (stereo partly shown)
Key: 13.3

Exercise: # query: IC50 of entry CC(O)[C@H]1C(=O)N[C@H](Cc2ccccc2)C(=O)NCC#Cc2ccccc2OCCN[C@@H](C2(C)CC2)C(=O)N1C (stereo partly shown)
Key: 45.3

Exercise: # query: IC50 of entry CC[C@@H]1NCC2CCc3cccc(c3O2)CCCNC(=O)[C@@H](Cc2ccccc2)NC(=O)[C@H](C(C)O)N(C)C1=O (stereo partly shown)
Key: 35.7

Exercise: # query: IC50 of entry CC(O)[C@H]1C(=O)N[C@H](Cc2ccccc2)C(=O)NCCCc2cccc3c2OC(CC3)CN[C@@H](C2CC2)C(=O)N1C (stereo partly shown)
Key: 21.1

* * *

# TESTED_SYSTEM: GHS-R1a receptor (HEK293 cells expressing GHS-R1a receptor) (Homo sapiens, UniProt Q92847)
# Construct: host or cells: HEK293
# Sequence (Q92847 whole entry): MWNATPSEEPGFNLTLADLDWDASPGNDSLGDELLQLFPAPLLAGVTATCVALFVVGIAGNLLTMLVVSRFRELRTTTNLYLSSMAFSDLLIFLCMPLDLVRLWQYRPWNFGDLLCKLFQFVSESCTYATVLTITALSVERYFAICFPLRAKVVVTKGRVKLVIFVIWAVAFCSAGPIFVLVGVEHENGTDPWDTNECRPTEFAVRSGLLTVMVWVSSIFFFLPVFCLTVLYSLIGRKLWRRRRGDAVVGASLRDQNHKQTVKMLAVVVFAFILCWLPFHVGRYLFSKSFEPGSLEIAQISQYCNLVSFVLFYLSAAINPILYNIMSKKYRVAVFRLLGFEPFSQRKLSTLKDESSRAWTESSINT
# EXPERIMENT_SUMMARY: Fluorescence functional assay (ghrelin receptor), Method B2, agonist and antagonist mode
# Type: cell-based
# EXPERIMENTAL_SETUP: functional activity as an antagonist at the ghrelin receptor, Methods B2 and B3
MEASURED_QUANTITY: Antagonist Activity

Some solved entries appear below for comparison.
COMPOUND | MEASURED_VALUE
CCC(C)[C@@H]1NCCOc2ccccc2/C=C/CNC(=O)[C@@H](Cc2cccc(F)c2)NC(=O)[C@H](C(C)O)N(C)C1=O (stereo partly drawn) | C (C = 10-100 nM)
CC(C)[C@@H]1NCCOc2ccccc2C2CCC(C2)NC(=O)[C@@H](Cc2ccc(F)cc2)NC(=O)[C@H](C(C)O)N(C)C1=O (stereo partly drawn) | A (A <1 nM)
CC(C)[C@@H]1NCCOc2cc(F)ccc2CCCNC(=O)[C@@H](Cc2cccc(Cl)c2)NC(=O)[C@H](C(C)O)N(C)C1=O (stereo partly drawn) | B (B = 1-10 nM)
CCC(C)[C@@H]1NCCOc2ccccc2/C=C/CNC(=O)[C@@H](Cc2cccs2)NC(=O)[C@H](C(C)O)N(C)C1=O (stereo partly drawn) | D (D = 100-500 nM)
CC[C@@H]1C#Cc2ccccc2O[C@H](C)CN[C@@H](C2(C)CC2)C(=O)N(C)[C@@H](C(C)O)C(=O)N[C@H](Cc2c[nH]c3ccccc23)C(=O)N1 (stereo partly drawn) | B (B = 1-10 nM)

Exercise: # query: Antagonist Activity of entry CC(O)[C@H]1C(=O)N[C@H](Cc2c[nH]c3ccccc23)C(=O)N[C@H](C)CCc2cc(F)ccc2OCCN[C@@H](C2CC2)C(=O)N1C (stereo partly drawn)
Key: C (C = 10-100 nM)

Exercise: # query: Antagonist Activity of entry CC(C)[C@@H]1NCCOc2cccc(F)c2C#CCNC(=O)[C@@H](Cc2ccccc2)NC(=O)[C@H](C(C)O)N(C)C1=O (stereo partly drawn)
Key: B (B = 1-10 nM)

Exercise: # query: Antagonist Activity of entry CC(C)C1NCCOc2ccccc2C#CCNC(=O)C(Cc2c[nH]c3ccccc23)NC(=O)C(C(C)O)N(C)C1=O (stereo not drawn)
Key: C (C = 10-100 nM)

Exercise: # query: Antagonist Activity of entry CC(C)[C@@H]1NCCOc2ccccc2C#C[C@@H](C)NC(=O)[C@@H](Cc2ccccc2)NC(=O)[C@H](C(C)O)N(C)C1=O (stereo partly drawn)
Key: A (A <1 nM)

Exercise: # query: Antagonist Activity of entry CC(C)[C@@H]1NCCOc2ccccc2CC[C@@H](C)NC(=O)[C@@H](Cc2cc(F)c(F)c(F)c2)NC(=O)[C@H](C(C)O)N(C)C1=O (stereo partly drawn)
Key: B (B = 1-10 nM)

Exercise: # query: Antagonist Activity of entry CC(C)[C@@H]1NCCOc2ccccc2CC[C@@H](C)NC(=O)[C@@H](Cc2ccc3ccccc3n2)NC(=O)[C@H](C(C)O)N(C)C1=O (stereo partly drawn)
Key: B (B = 1-10 nM)

Exercise: # query: Antagonist Activity of entry CC(C)[C@@H]1NCCOc2ccccc2CC[C@@H](C)NC(=O)[C@@H](Cc2cccc(Cl)c2)NC(=O)[C@H](C(C)O)N(C)C1=O (stereo partly drawn)
Key: A (A <1 nM)

* * *

# TESTED_SYSTEM: human ghrelin receptor (GRLN, growth hormone secretagogue receptor, hGHS-R1a) (Homo sapiens, UniProt Q92847)
# Construct: purchased PerkinElmer BioSignal #RBHGHSM, lot#1887; host or cells: HEK-293 cells, stably transfected (membranes)
# Sequence (Q92847 whole entry): as above
# EXPERIMENT_SUMMARY: Competitive radioligand binding assay (ghrelin receptor), Method B1
# EXPERIMENTAL_SETUP: Ghrelin receptor binding activity, Method B1
pIC50: −log10 of the molar value.
// pIC50 lookup, one value per entry

Some solved entries appear below for comparison.
MOLECULE | pIC50
CC[C@@H]1CCc2ccc(OC)cc2OCCN[C@@H](C(C)C)C(=O)N(C)[C@@H](C(C)O)C(=O)N[C@H](Cc2c[nH]c3ccccc23)C(=O)N1 (stereo partly drawn) | < 6.30
CCC1CCc2ccc(F)cc2OC(C)CNC(C2(C)CC2)C(=O)N(C)C(C(C)O)C(=O)NC(Cc2ccccc2)C(=O)N1 (stereo not drawn) | 7.00 to 8.00
CC[C@@H]1CCc2c(NS(C)(=O)=O)cccc2OCCN[C@@H](C(C)C)C(=O)N(C)[C@@H](C(C)O)C(=O)N[C@H](Cc2ccccc2)C(=O)N1 (stereo partly drawn) | < 6.30
CCC(C)[C@@H]1N[C@H](C)COc2ccccc2CCCNC(=O)[C@@H](Cc2ccccc2)NC(=O)[C@H](C(C)O)N(C)C1=O (stereo partly drawn) | 6.30 to 7.00
CC[C@@H]1CCc2ccc(F)cc2O[C@H](C)CN[C@@H](C2(C)CC2)C(=O)N(C)[C@@H](C(C)O)C(=O)N[C@H](Cc2cccc(F)c2)C(=O)N1 (stereo partly drawn) | 6.30 to 7.00
CC(O)[C@H]1C(=O)N[C@H](Cc2ccc(Cl)cc2)C(=O)NC/C=C/c2ccccc2OCCN[C@@H](C(C)(C)C)C(=O)N1C (stereo partly drawn) | 7.00 to 8.00
CCC1CCc2ccc(F)cc2OCCNC(C(C)C)C(=O)N(C)C(C(C)O)C(=O)NC(Cc2c[nH]c3ccc(F)cc23)C(=O)N1 (stereo not drawn) | 8.00 to 9.00
CCC(C)C1NCCOc2ccccc2C=CCNC(=O)C(Cc2ccc(OC)cc2)NC(=O)C(C(C)O)N(C)C1=O (stereo not drawn) | 7.00 to 8.00
CC(C)C1NCCOc2cc(F)ccc2C#CCNC(=O)C(Cc2c[nH]c3ccccc23)NC(=O)C(C(C)O)N(C)C1=O (stereo not drawn) | 7.00 to 8.00
CC(C)C1NCCOc2ccccc2C#CCNC(=O)C(Cc2cccc(F)c2)NC(=O)C(C(C)O)N(C)C1=O (stereo not drawn) | 8.00 to 9.00

Exercise: # query: pIC50 of entry CCC(C)[C@@H]1NCCOc2ccccc2/C=C/CNC(=O)[C@@H](Cc2c[nH]cn2)NC(=O)[C@H](C(C)O)N(C)C1=O (stereo partly drawn)
Key: 6.30 to 7.00

Exercise: # query: pIC50 of entry CC(O)[C@H]1C(=O)N[C@H](Cc2ccccc2)C(=O)N[C@H](C)CCc2ccc(F)cc2O[C@H](C)CN[C@@H](C2(C)CC2)C(=O)N1C (stereo partly drawn)
Key: 7.00 to 8.00

The values you see were collected from patent US20110105389A1.
